assay_details: Solubility of the compound in alphaMEM containing 5% FCS and 1% DMSO by HPLC analysis
Type: physicochemical
A collection of compounds and their measured solubility

| compound | display_unit | readout_qualifier | solubility |
| --- | --- | --- | --- |
| O=[N+]([O-])c1cncn1CCN1CCOCC1 [NIMORAZOLE] | mM | > | 100 |
| COCCNS(=O)(=O)CCn1cncc1[N+](=O)[O-] | mM | = | 24.4 |
| Cc1ncc([N+](=O)[O-])n1CCS(=O)(=O)N1CCOCC1 | mM | = | 2.77 |
| COCCNS(=O)(=O)CCn1ccnc1[N+](=O)[O-] | mM | = | 59.4 |
| Cc1ncc([N+](=O)[O-])n1CCS(=O)(=O)NCCN1CCOCC1 | mM | = | 44.1 |
| O=[N+]([O-])c1cncn1CCS(=O)(=O)NCCO | mM | = | 69.3 |

* * *

assay_details: Cmax in tumor of NIH-III mouse xenografted with human HCT116 cells at 1.24 mmol/kg, iv administered as single dose by HPLC analysis
Format: ADME, organism-based, Neoplasm
Parameters: dose 1.24 mmol/kg, route intravenous
assay_context: in vivo

| line_notation | Cmax [µM] |
| --- | --- |
| O=[N+]([O-])c1cncn1CCN1CCOCC1 | 91 |

* * *

assay_details: Tmax in tumor of NIH-III mouse xenografted with human HCT116 cells at 2.20 mmol/kg, iv administered as single dose by HPLC analysis
Format: ADME, organism-based, Neoplasm
assay_context: 2.2 mmol/kg
assay_readout: Tmax

| molecule | assay_readout | value_reported |
| --- | --- | --- |
| O=[N+]([O-])c1nccn1CS(=O)(=O)NCCOP(=O)(O)O | Tmax | 10 min |
| O=C(Cn1ccnc1[N+](=O)[O-])NCCO [ETANIDAZOLE] | Tmax | 5 min |
| O=[N+]([O-])c1cncn1CS(=O)(=O)NCCOP(=O)(O)O | Tmax | 30 min |
| O=[N+]([O-])c1nccn1CCS(=O)(=O)NCCOP(=O)(O)O | Tmax | 10 min |

* * *

Test system: HCT-116
assay_details: Hypoxic cytotoxicity ratio of IC50 for human HCT116 cells under oxic condition to IC50 for human HCT116 cells under anoxic condition
assay_readout: Ratio IC50

| line_notation | value_reported |
| --- | --- |
| O=[N+]([O-])c1cncn1CS(=O)(=O)NCCN1CCOCC1 | 1.4 |
| Cc1ncc([N+](=O)[O-])n1CCS(=O)(=O)N1CCC(N(C)C)CC1 | 2.9 |
| O=C(O)CCNS(=O)(=O)Cn1ccnc1[N+](=O)[O-] | 1 |
| O=[N+]([O-])c1nccn1CS(=O)(=O)N1CCOCC1 | 11 |
| O=[N+]([O-])c1cncn1CCN1CCOCC1 | 0.8 |

* * *

assay_details: Solubility of the compound in alphaMEM containing 5% FCS and 1% DMSO by HPLC analysis
Type: physicochemical
Each record's class is read off its solubility using these ranges: lower bin: < 20 mM; middle bin: ≥ 20 mM and < 60 mM; upper bin: ≥ 60 mM

| compound | class_label |
| --- | --- |
| O=[N+]([O-])c1nccn1CS(=O)(=O)NCCOP(=O)(O)O | upper bin |
| O=[N+]([O-])c1nccn1CS(=O)(=O)NCCN1CCCC1 | lower bin |
| COCCNS(=O)(=O)CCn1cnc([N+](=O)[O-])c1 | lower bin |
| O=[N+]([O-])c1nccn1CCS(=O)(=O)NCCO | upper bin |
| O=C(Cn1ccnc1[N+](=O)[O-])NCCO | upper bin |
| CCN(CC)CCNS(=O)(=O)CCn1c([N+](=O)[O-])cnc1C | middle bin |
| O=C(O)CCNS(=O)(=O)Cn1ccnc1[N+](=O)[O-] | upper bin |
| O=[N+]([O-])c1nccn1CS(=O)(=O)NCCN1CCOCC1 | upper bin |
| COCC(O)Cn1ccnc1[N+](=O)[O-] (stereo unspecified) | upper bin |
| Cc1ncc([N+](=O)[O-])n1CCS(=O)(=O)NCCN(C)C | middle bin |
| Cc1ncc([N+](=O)[O-])n1CCS(=O)(=O)N1CCC(N(C)C)CC1 | middle bin |
| Cc1ncc([N+](=O)[O-])n1CCS(=O)(=O)N1CCN(C)CC1 | lower bin |
| O=[N+]([O-])c1nccn1CS(=O)(=O)N1CCOCC1 | lower bin |
| O=[N+]([O-])c1cncn1CS(=O)(=O)NCCO | middle bin |
| O=[N+]([O-])c1nccn1CCS(=O)(=O)NCCN1CCOCC1 | upper bin |
| O=[N+]([O-])c1cn(CCS(=O)(=O)NCCO)cn1 | upper bin |
| COCCCNS(=O)(=O)CCn1c([N+](=O)[O-])cnc1C | lower bin |

* * *

assay_details: Cmax in tumor of NIH-III mouse xenografted with human HCT116 cells at 0.60 mmol/kg, iv administered as single dose by HPLC analysis
Type: ADME, organism-based, Neoplasm
Parameters: dose 0.6 mmol/kg, route intravenous
assay_context: in vivo
assay_readout: Cmax (µM)

| line_notation | assay_readout | value_reported |
| --- | --- | --- |
| O=[N+]([O-])c1nccn1CS(=O)(=O)NCCO | Cmax | 94 |

* * *

Tested on: HCT-116
assay_details: Hypoxia radiosensitization activity in human HCT116 cells assessed as survival ratio by measuring ratio of cell survival with 15 Gy radiation in absence to presence of compound at anoxic IC50 preincubated for 1 hr followed by 15 Gy irradiation measured after 10 days by methylene blue staining-based cell counting method
Format: functional
// classify: if (Ratio < 7) rule met else rule not met

| compound | class_label |
| --- | --- |
| O=[N+]([O-])c1cn(CCS(=O)(=O)NCCO)cn1 | rule met |
| Cc1ncc([N+](=O)[O-])n1CCS(=O)(=O)NCCCN(C)C | rule not met |
| O=[N+]([O-])c1cncn1CS(=O)(=O)NCCN1CCOCC1 | rule not met |
| Cc1ncc([N+](=O)[O-])n1CCS(=O)(=O)N1CCN(C)CC1 | rule met |
| COCCCNS(=O)(=O)CCn1c([N+](=O)[O-])cnc1C | rule met |
| O=C(O)CNS(=O)(=O)Cn1ccnc1[N+](=O)[O-] | rule met |
| O=[N+]([O-])c1cncn1CCN1CCOCC1 [NIMORAZOLE] | rule not met |
| Cc1ncc([N+](=O)[O-])n1CCS(=O)(=O)N1CCOCC1 | rule met |
| O=[N+]([O-])c1cncn1CS(=O)(=O)NCCO | rule not met |

* * *

assay_details: Tmax in plasma of NIH-III mouse xenografted with human HCT116 cells at 0.60 mmol/kg, iv administered as single dose by HPLC analysis
Format: ADME, organism-based
assay_context: 0.6 mmol/kg

| line_notation | Tmax |
| --- | --- |
| O=[N+]([O-])c1nccn1CS(=O)(=O)NCCO | 5 min |

* * *

Test system: HCT-116
assay_details: Hypoxia radiosensitization activity in human HCT116 cells assessed as survival ratio by measuring ratio of cell survival with 15 Gy radiation in absence to presence of compound at anoxic IC50 preincubated for 1 hr followed by 15 Gy irradiation measured after 10 days by methylene blue staining-based cell counting method
Assay type: functional
Classification field: enter YES for Ratio values not below 7, NO for values below it.

| line_notation | class_label |
| --- | --- |
| CCN(CC)CCNS(=O)(=O)CCn1c([N+](=O)[O-])cnc1C | YES |
| Cc1ncc([N+](=O)[O-])n1CCS(=O)(=O)NCCCN1CCOCC1 | YES |
| O=[N+]([O-])c1nccn1CCS(=O)(=O)NCCO | YES |
| O=[N+]([O-])c1nccn1CS(=O)(=O)N1CCOCC1 | NO |
| O=[N+]([O-])c1nccn1CCS(=O)(=O)NCCN1CCOCC1 | NO |

* * *

System: HCT-116
assay_details: Hypoxic cytotoxicity ratio of IC50 for human HCT116 cells under oxic condition to IC50 for human HCT116 cells under anoxic condition
A collection of compounds and their measured Ratio IC50

| line_notation | Ratio IC50 |
| --- | --- |
| COCCNS(=O)(=O)CCn1ccnc1[N+](=O)[O-] | 5 |
| Cc1ncc([N+](=O)[O-])n1CCS(=O)(=O)N1CCOCC1 | 1.5 |
| O=[N+]([O-])c1nccn1CCS(=O)(=O)NCCO | 8 |
| O=[N+]([O-])c1cncn1CS(=O)(=O)NCCO | 4 |
| Cc1ncc([N+](=O)[O-])n1CCS(=O)(=O)NCCCN1CCOCC1 | 0.8 |
| O=[N+]([O-])c1cncn1CCS(=O)(=O)NCCO | 2 |
| O=[N+]([O-])c1nccn1CS(=O)(=O)NCCN1CCCC1 | 96 |
| O=[N+]([O-])c1cn(CCS(=O)(=O)NCCO)cn1 | 1 |
| O=C(Cn1ccnc1[N+](=O)[O-])NCCO | 19 |
| O=C(O)CNS(=O)(=O)Cn1ccnc1[N+](=O)[O-] | 10 |
| Cc1ncc([N+](=O)[O-])n1CCS(=O)(=O)NCCN(C)C | 6 |
| Cc1ncc([N+](=O)[O-])n1CCS(=O)(=O)NCCO | 1.3 |

FYI, the data here is from ChEMBL document CHEMBL4033777.
